target: human SGLT1 (Homo sapiens (Human)); assay: SGLT1 inhibitory activity: 14C-AMG uptake into CHO-K1 cell line stably expressing human SGLT1; format: cell-based; details: 14C-AMG uptake, CHO-K1 cells stably expressing human SGLT1
Catalogue of IC50 values
Give just the numeric value; nM need not be written.

### Prompt Could you tell me which IC50 is on file for CCCc1cccc(-c2cc(NC(=O)[C@@H]3CNC(=O)C3)nn2-c2cccc(OC(F)(F)F)c2)c1 ?
### Response 15

### Prompt Could you tell me which IC50 is on file for C[C@@H](OCc1cc(F)cc(-c2cc(NC(=O)[C@@H]3CNC(=O)C3)nn2-c2cccc(Cl)c2)c1)C(F)(F)F ?
### Response 4

### Prompt Could you tell me which IC50 is on file for Cc1cc(-c2cc(NC(=O)[C@@H]3CNC(=O)C3)nn2-c2ccccc2)cc(C(C)(C)C)c1 ?
### Response 4.4

### Prompt Could you tell me which IC50 is on file for CCCOc1cccc(-n2nc(NC(=O)[C@@H]3CNC(=O)C3)cc2-c2cccc(OC(F)(F)F)c2)c1 ?
### Response 10

----------
target: human SGLT1 (Homo sapiens (Human), UniProt P13866); experiment: SGLT1 inhibitory activity: 14C-AMG uptake into CHO-K1 cell line stably expressing human SGLT1; type: cell-based; details: 14C-AMG uptake, CHO-K1 cells stably expressing human SGLT1
Sequence (P13866 whole entry): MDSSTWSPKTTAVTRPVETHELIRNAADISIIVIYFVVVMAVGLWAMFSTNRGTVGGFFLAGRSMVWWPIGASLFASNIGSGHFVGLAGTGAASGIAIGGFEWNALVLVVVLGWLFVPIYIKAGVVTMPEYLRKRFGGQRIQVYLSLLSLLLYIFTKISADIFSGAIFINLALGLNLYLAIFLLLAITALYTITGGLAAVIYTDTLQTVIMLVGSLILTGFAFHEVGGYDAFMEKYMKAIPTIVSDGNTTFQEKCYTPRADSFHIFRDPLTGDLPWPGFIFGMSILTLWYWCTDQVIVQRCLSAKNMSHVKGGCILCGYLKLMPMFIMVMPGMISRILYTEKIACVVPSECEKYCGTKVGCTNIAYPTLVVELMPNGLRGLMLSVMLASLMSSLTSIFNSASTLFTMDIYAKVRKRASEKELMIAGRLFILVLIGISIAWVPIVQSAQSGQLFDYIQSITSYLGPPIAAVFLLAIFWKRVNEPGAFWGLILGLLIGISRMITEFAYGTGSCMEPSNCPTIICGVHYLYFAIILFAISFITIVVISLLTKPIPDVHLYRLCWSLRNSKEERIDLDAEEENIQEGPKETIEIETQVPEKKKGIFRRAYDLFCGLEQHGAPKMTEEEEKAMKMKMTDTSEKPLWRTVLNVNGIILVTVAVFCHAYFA
Catalogue of log10(IC50) values
Friendly reminder: values = log10 of IC50, unit nM.

Some compounds with known log10(IC50) results, for comparison:
smiles.str: COc1cc(F)cc(-n2nc(NC(=O)[C@@H]3CNC(=O)C3)cc2-c2cccc(OC(F)(F)F)c2)c1
log10(IC50): 1.43

smiles.str: CC(C)Oc1cccc(-n2nc(NC(=O)[C@@H]3CNC(=O)C3)cc2-c2cccc(CO[C@H](C)C(F)(F)F)c2)c1
log10(IC50): 0.30

smiles.str: CC(C)(OCc1cc(F)cc(-c2cc(NC(=O)[C@H]3CNC(=O)N3)nn2-c2ccc(Cl)cc2)c1)C(F)(F)F
log10(IC50): 1.20

smiles.str: C[C@H](OCc1cccc(-c2cc(NC(=O)[C@@H]3CNC(=O)C3)nn2-c2ccccc2)c1)C(F)(F)F
log10(IC50): 1.20

smiles.str: C[C@@H](OCc1cccc(-c2cc(NC(=O)[C@@H]3CNC(=O)C3)nn2-c2ccc(F)cc2)c1)C(F)(F)F
log10(IC50): 0.90

### Prompt Could you tell me which log10(IC50) is on file for O=C1C[C@@H](C(=O)Nc2cc(-c3cccc(COCC(F)(F)F)c3)n(-c3ccccc3)n2)CN1 ?
### Response 0.99

### Prompt Could you tell me which log10(IC50) is on file for C[C@@H](OCc1cc(Cl)cc(-c2cc(NC(=O)[C@@H]3CNC(=O)C3)nn2-c2cccc(F)c2)c1)C(F)(F)F ?
### Response 0.93

----------
Catalogue of inhibition at 0.1 µM values
target: human SGLT1 (Homo sapiens (Human)); experiment: SGLT1 inhibitory activity: 14C-AMG uptake into CHO-K1 cell line stably expressing human SGLT1; type: cell-based; details: CHO-K1, at 0.1 uM
Give just the numeric value; % need not be written.

Some compounds with known inhibition at 0.1 µM results, for comparison:
compound: C[C@@H](OCc1ccc(F)c(-c2cc(NC(=O)[C@@H]3CNC(=O)C3)nn2-c2ccccc2)c1)C(F)(F)F [Example 427]
target.or.system: human SGLT1 (Homo sapiens (Human))
uom: %
inhibition at 0.1 µM: 49
--
compound: CCCNC(=O)c1cccc(-c2cc(NC(=O)[C@@H]3CNC(=O)C3)nn2-c2ccccc2)c1 [Example 429]
target.or.system: human SGLT1 (Homo sapiens (Human))
uom: %
inhibition at 0.1 µM: 40
--
compound: C[C@@H](OCc1cccc(-c2cc(NC(=O)[C@H]3CCC(=O)N3)nn2-c2ccccc2)c1)C(F)(F)F [Example 556]
target.or.system: human SGLT1 (Homo sapiens (Human))
uom: %
inhibition at 0.1 µM: 23
--
compound: CCCc1cccc(-c2cc(NC(=O)C3CNC(=O)CO3)nn2-c2ccccc2)c1 (stereo not shown) [Example 275]
target.or.system: human SGLT1 (Homo sapiens (Human))
uom: %
inhibition at 0.1 µM: 48
--
compound: CCCc1cccc(-c2cc(NC(=O)C3CC(=O)NC3C)nn2-c2ccccc2)c1 (stereo not shown) [Example 405]
target.or.system: human SGLT1 (Homo sapiens (Human))
uom: %
inhibition at 0.1 µM: 29

Consider the record given below.
### Prompt Could you tell me which inhibition at 0.1 µM is on file for CCCc1cccc(-c2cc(NC(=O)[C@@H]3CNC(=O)C3)nn2CC(F)(F)F)c1 [Example 67] ?
### Response 29
